Here, molecules appear alongside log10 of Ki reported for Coagulation factor X (Homo sapiens, UniProt P00742) in the literature.
Please note: log10 values; quantity Ki; unit µM.

MOLECULE | log10 of Ki
CCOC(=O)C1CCN(c2ccc(N3C[C@@H](CNC(=O)c4ccc(Cl)c(N)c4)OC3=O)cc2)CC1 | 1.92
O=C(Nc1cccc(CCc2cccc(F)c2)c1)C1CCN(c2ccncc2)CC1 | 1.64
C[S+]([O-])Cc1csc(C(=O)Nc2ccc(Cl)cc2C(=O)Nc2ccc(Cl)cc2)c1Cl (stereo not given) | -3.40

Exercise: Quick one: log10 of Ki of O=C1CCCCN1c1ccc(N2CCCC(NS(=O)(=O)c3ccc4cc(Cl)ccc4c3)C2=O)c(F)c1 (stereo not given) ?
Key: -2.00

Exercise: // query: CCOC(=O)CN(Cc1cc(F)cc(F)c1)c1ccc2c(c1)OC(C)(COc1ccc(C(=N)N)cc1)CN2C (stereo not given)
Key: 1.18

Exercise: // query: CC(NC(=O)CNC(=O)Nc1ccc(C(=N)N)cc1)c1ccc(NC(=O)c2ccccc2)cc1 (stereo not given)
Key: 0.66

Exercise: // query: CNC(=O)[C@H](Cc1cccc(C(=N)N)c1)NS(=O)(=O)c1c(C)cc(OC)c(C)c1C
Key: 2.28

Exercise: // query: N=C(N)c1cccc(C[C@H](NS(=O)(=O)c2ccc3ccccc3c2)C(=O)N2CCC(N3CCCCC3)CC2)c1
Key: 1.34

Exercise: // query: Cc1c(S(=O)(=O)NC2CCCN(c3ccc(-c4ccccc4S(C)(=O)=O)cc3F)C2=O)sc2ccc(Cl)cc12 (stereo not given)
Key: -0.80

###

Here, compounds appear alongside Ki reported for Coagulation factor X (Homo sapiens) in the literature.
Note that class boundaries on Ki are bin 1 (below 600 nM), bin 2 (600 nM to below 3000 nM), bin 3 (3000 nM or more)

Reference set (6 entries):
SMILES REPR | QUALITATIVE LABEL
N=C(N)c1ccc(CNC(=O)[C@@H]2Cc3ccc(cc3)NC(=O)CCN3CCN(CCC(=O)Nc4cccc(c4)C[C@@H](NS(=O)(=O)Cc4ccccc4)C(=O)N2)CC3)cc1 | bin 2
N=C(N)c1ccc2ccc(CN(CCCc3ccccc3)C(=O)c3cccc4ccccc34)cc2c1 | bin 2
CC(C)OC(=O)[C@@H]1CN(Cc2ccc(-c3ccccc3S(N)(=O)=O)cc2)C[C@H]1c1cccc(C(=N)N)c1.O=C(O)C(F)(F)F.O=C(O)C(F)(F)F | bin 1
CCCNc1cnc2n(c1=O)[C@H](C(=O)NCc1ccc(C(=N)N)cc1)CC2(CC)CC | bin 3
CNC(=O)NC1CCN(C(=O)[C@H](Cc2cccc(C(=N)N)c2)NS(=O)(=O)c2cccc(NC(=O)CCN)c2)CC1 | bin 3
COc1ccc(C(=O)Nc2ccccc2NC(=O)c2ccc(OC)cc2)cc1 | bin 2

Exercise: Into which bin does this compound go? COc1ccc(CNC(=O)c2cc3c(O)cccc3n2Cc2cccc(C(=N)N)c2)cc1
Key: bin 2

Exercise: // query: COc1ccc(-n2nc(C(N)=O)c3c2C(=O)N(c2ccc(C(C)(C)S(C)(=O)=O)cc2)CC3)cc1
Key: bin 1

###

Here, molecules appear alongside pKi reported for Coagulation factor X (Homo sapiens, UniProt P00742) in the literature.
pKi here is simply -log10 of the concentration when that concentration is written in mol/L.

MOLECULE | EXPERIMENTAL VALUE
CCOc1cc(C(Nc2ccc3c(N)nccc3c2)C(=O)NS(=O)(=O)c2ccc(N)cc2)ccc1OC(C)C (configuration not stated) | 5.24
FC(F)(CNc1nccc2oc(Cc3cc(Cl)ccc3-n3cncn3)nc12)C1CCCCN1 (configuration not stated) | 8.92
COc1ccc(-n2nc(Cn3nccn3)c3c2C(=O)N(c2ccc(-c4ccccc4CN4CC[C@@H](O)C4)cc2)CC3)cc1 | 9.32

We next turn to a different molecule, shown below.
Exercise: Request - read-out pKi | tested on Coagulation factor X (Homo sapiens, UniProt P00742) | molecule CCOC(=O)CN(C)Cc1csc(C(=O)Nc2ccc(Cl)cc2C(=O)Nc2ccc(Cl)cc2)c1Cl
Key: 8.28
